Taken from paper PMC4464085.

- target_or_system: FBP21-WW1 (Homo sapiens, UniProt O75554)
- Construct: with regard to FBP21’s WW domains by ITC; GST (N); made in house; host or cells: E. coli BL21 DE3 (pGEX4T1)
- Sequence (O75554 122-155 limits assumed): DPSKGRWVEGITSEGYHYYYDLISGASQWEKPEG
- assay_explanation: Isothermal titration calorimetry (ITC) with FBP21-WW1
- Format: binding
- recorded_conditions: PBS pH 7.4, 25 °C, protein in cell 250 µM, peptide in syringe 5 mM, GST-tagged FBP21-WW1
Ends that are not written are not given here.
Some substances, each annotated with its measured Kd.
reported_metric: Kd (µM)

{"columns": ["substance", "result_number"],
 "data": [
  ["Ac-WPPPPRVPR [WPPPPRVPR]", 155],
  ["YPRPTNPRP [YPRPTNPRP]", 490],
  ["YPRPPGPPP [YPRPPGPPP]", 452]
]}
